Catalogue of ED50 readings, one per entry.
# Tested on: Mus musculus
# experimentalProtocol: Analgesic activity in sc dosed ddY mouse assessed as inhibition of acetic acid-induced abdominal stretching pretreated for 30 mins followed by acetic acid challenge measured for 5 to 20 mins
# Assay type: functional
# protocolConditions: Abdomen
Just the number in mg/kg, nothing appended.

molecule=Cn1ncccc1=O assaysystem="Mus musculus" readoutkind=ED50 u=mg/kg experimentalresult=65

Pending molecule:
-- ask Tell me its ED50 given Cc1c(N(C)C)c(=O)n(-c2ccccc2)n1C [AMINOPYRINE] as the entry.
-- reply 46

----------
# System: Rattus norvegicus
# experimentalProtocol: Antiinflammatory activity in Wistar rat assessed as inhibition of carrageenan-induced paw edema at 25 mg/kg, po pretreated for 30 mins followed by carrageenan challenge measured after 3 hrs relative to control
# Assay type: functional
Reported inhibition in vivo at 25 mg/kg values for a set of compounds
Unit % implied. Number only.

Take a look at these entries with their results.
testsmiles=CCOc1c(NC)cnn(C)c1=O experimentalresult=-1.1
testsmiles=CCCNc1cnn(C)c(=O)c1OCC experimentalresult=2

Here is another compound to look at.
-- ask Report the value of inhibition in vivo at 25 mg/kg obtained on Rattus norvegicus for CCCCC1C(=O)N(c2ccccc2)N(c2ccccc2)C1=O .
-- reply 18
